Biological target: human DLL3 endogenously expressed on SHP77 and NCI-H82 cells (human) (UniProt Q9NYJ7)
Sequence (Q9NYJ7 27-618): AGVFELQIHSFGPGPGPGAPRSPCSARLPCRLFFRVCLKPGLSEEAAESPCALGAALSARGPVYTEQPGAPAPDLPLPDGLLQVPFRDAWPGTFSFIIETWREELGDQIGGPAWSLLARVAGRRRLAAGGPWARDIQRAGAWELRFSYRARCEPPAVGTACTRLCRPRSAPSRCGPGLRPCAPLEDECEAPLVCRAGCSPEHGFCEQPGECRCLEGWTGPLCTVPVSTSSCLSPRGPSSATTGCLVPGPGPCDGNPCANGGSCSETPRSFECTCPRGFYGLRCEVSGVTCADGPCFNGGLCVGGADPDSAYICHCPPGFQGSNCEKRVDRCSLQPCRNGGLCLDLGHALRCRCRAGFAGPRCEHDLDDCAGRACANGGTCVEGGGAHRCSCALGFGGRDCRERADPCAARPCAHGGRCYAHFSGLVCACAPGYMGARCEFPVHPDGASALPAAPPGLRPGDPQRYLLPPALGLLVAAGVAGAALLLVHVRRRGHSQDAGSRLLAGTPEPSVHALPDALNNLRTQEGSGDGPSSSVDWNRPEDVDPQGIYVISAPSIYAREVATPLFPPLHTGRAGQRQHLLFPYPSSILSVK
Test: FACS SHP77 cells, 20 nM
Listed binders paired with reported MFI
Your answer is read as MFI, so omit the unit and give the number.

mab016 scFv-hFc (Fc fusion, not shown: small tags and cut ends; a dimerising Fc or GST) scFv (part 1 of 2): DIVMTQSQKFMSTTIGDRVSITCKASQNVGTTVAWYQQKPGQSPNLLLYSTSNRFTGVPDRFTGSGSGTDFTLTITNMQSEDLADYFCQQYNNYPLTFGGGTKLEIK scFv (part 2 of 2): EVNLEESGGGLVQPGGSMKLSCVASGFAFSNFWMQWVRQSPEKGLEWVAQIRLKSDNYAAHYAESVKGRFTISRDDSKSSVYLQLNNLRAEDTGTYYCTQGNWVGFAYWGQGTLVTVSA: 653

Proceeding to the next binder to report its MFI.
Challenge: Recorded MFI for mab014 scFv-hFc (Fc fusion, not shown: small tags and cut ends; a dimerising Fc or GST) scFv (part 1 of 2): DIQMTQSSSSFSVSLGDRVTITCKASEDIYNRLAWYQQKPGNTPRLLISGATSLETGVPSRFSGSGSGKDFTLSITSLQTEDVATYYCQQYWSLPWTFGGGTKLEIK scFv (part 2 of 2): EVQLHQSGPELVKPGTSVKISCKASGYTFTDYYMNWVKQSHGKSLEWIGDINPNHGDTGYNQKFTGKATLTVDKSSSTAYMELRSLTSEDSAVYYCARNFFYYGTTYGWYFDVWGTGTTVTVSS , please?
Response given: 829
